# TARGET: Tyrosine-protein kinase JAK1 (Homo sapiens)
# Sequence (P23458 whole entry): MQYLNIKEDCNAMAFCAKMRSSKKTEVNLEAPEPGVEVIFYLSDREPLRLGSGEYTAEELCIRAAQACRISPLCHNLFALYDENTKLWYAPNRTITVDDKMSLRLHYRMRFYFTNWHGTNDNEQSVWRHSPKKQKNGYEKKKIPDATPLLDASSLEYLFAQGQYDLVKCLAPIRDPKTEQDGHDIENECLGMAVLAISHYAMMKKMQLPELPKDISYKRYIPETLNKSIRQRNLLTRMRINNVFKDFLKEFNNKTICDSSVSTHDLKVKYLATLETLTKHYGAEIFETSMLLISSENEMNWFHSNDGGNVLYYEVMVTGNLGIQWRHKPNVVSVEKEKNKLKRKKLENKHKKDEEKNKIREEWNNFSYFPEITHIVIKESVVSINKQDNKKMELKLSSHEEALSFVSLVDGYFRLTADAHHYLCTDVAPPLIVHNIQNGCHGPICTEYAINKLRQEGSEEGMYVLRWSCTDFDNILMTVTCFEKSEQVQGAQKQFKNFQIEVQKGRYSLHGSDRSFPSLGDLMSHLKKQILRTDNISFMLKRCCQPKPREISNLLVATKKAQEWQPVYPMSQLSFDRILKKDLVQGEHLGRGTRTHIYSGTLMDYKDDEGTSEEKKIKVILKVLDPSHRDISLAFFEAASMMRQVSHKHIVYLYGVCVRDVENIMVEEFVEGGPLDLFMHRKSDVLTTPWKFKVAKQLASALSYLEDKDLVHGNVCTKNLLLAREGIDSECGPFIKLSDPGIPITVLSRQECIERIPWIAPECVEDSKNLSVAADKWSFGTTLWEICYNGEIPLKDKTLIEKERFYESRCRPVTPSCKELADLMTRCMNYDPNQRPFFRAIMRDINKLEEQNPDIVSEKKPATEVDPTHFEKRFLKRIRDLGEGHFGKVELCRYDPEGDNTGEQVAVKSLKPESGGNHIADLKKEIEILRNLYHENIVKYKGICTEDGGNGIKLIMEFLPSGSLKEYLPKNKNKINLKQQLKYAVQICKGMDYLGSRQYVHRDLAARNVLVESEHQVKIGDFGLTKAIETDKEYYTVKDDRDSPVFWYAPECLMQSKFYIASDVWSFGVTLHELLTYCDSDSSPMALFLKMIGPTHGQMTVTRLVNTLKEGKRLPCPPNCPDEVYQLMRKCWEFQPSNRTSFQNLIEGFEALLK
# ASSAY PROTOCOL: Inhibition of human recombinant JAK1
# CONDITION SUMMARY: read-out: IC50
pIC50: −log10 of the molar value.
# pIC50 listing for each entry below
OBSERVED PROPERTY: pIC50

INSERT INTO results (smiles_notation, target, test_value) VALUES
  ('COc1ccc(-c2cccc3nc(N(C)C(=O)C4CC4)nn23)cc1', 'Tyrosine-protein kinase JAK1 (Homo sapiens)', '< 5.00'),
  ('COc1ccc(-c2cccc3nc(-c4cccnc4)nn23)cc1', 'Tyrosine-protein kinase JAK1 (Homo sapiens)', '< 5.00'),
  ('CN1CCN(Cc2ccc(-c3cccc4nc(NC(=O)C5CC5)nn34)cc2)CC1', 'Tyrosine-protein kinase JAK1 (Homo sapiens)', '< 5.40'),
  ('CC(C)(C)OCc1ccccc1-c1cccc2nc(NC(=O)C3CC3)nn12', 'Tyrosine-protein kinase JAK1 (Homo sapiens)', '< 5.00');
